Values compiled from patent US20050209157A1.

- Tested on: P. aeruginosa H374
- Assay type: cell-based, Pseudomonas aeruginosa
- SETUP CONDITIONS: Table 9; in µg/mL
MEASUREMENT TYPE: MIC P. aeruginosa H374
API note: the answer field is a bare number with no unit suffix.

SMILES INPUT: CC(C)C[C@H](NC(=O)[C@H](C)NC(=O)[C@H](CC(C)C)NC(=O)[C@H](CCCCN)NC(=O)[C@H](C)NC(=O)[C@H](CC(C)C)NC(=O)[C@H](CCCCN)NC(=O)[C@H](CCCCN)NC(=O)[C@H](C)NC(=O)[C@H](CC(C)C)NC(=O)[C@H](CCCCN)NC(=O)[C@H](C)NC(=O)[C@H](CC(C)C)NC(=O)[C@H](CCCCN)NC(=O)[C@H](CCCCN)NC(=O)[C@H](C)NC(=O)[C@@H](N)Cc1ccccc1)C(=O)O
MIC P. aeruginosa H374: 4
--
SMILES INPUT: CC(C)C[C@H](NC(=O)[C@H](C)NC(=O)[C@H](CC(C)C)NC(=O)[C@H](CCCCN)NC(=O)[C@H](C)NC(=O)[C@H](CC(C)C)NC(=O)[C@H](CCCCN)NC(=O)[C@H](CCCCN)NC(=O)[C@H](C)NC(=O)[C@H](CC(C)C)NC(=O)[C@H](CCCCN)NC(=O)[C@H](C)NC(=O)[C@H](CC(C)C)NC(=O)[C@H](CCCCN)NC(=O)[C@H](CCCCN)NC(=O)[C@H](C)NC(=O)[C@@H](N)C(C)C)C(N)=O
MIC P. aeruginosa H374: 4
--
SMILES INPUT: CC(C)C[C@H](NC(=O)[C@H](C)NC(=O)[C@H](CC(C)C)NC(=O)[C@H](CCCCN)NC(=O)[C@H](C)NC(=O)[C@H](CC(C)C)NC(=O)[C@H](CCCCN)NC(=O)[C@H](CCCCN)NC(=O)[C@H](C)NC(=O)[C@H](CC(C)C)NC(=O)[C@H](CCCCN)NC(=O)[C@H](C)NC(=O)[C@H](CC(C)C)NC(=O)[C@H](CCCCN)NC(=O)[C@H](CCCCN)NC(=O)[C@H](C)NC(=O)[C@@H](N)Cc1ccccc1)C(N)=O
MIC P. aeruginosa H374: 8

Prompt: I'd like to know its MIC P. aeruginosa H374. The molecule in question is CC(C)C[C@H](NC(=O)[C@H](C)NC(=O)[C@H](CC(C)C)NC(=O)[C@H](C)NC(=O)[C@H](CC(C)C)NC(=O)[C@H](CCCCN)NC(=O)[C@H](C)NC(=O)[C@H](CC(C)C)NC(=O)[C@H](CCCCN)NC(=O)[C@H](CCCCN)NC(=O)[C@H](C)NC(=O)[C@H](CC(C)C)NC(=O)[C@H](CCCCN)NC(=O)[C@H](C)NC(=O)[C@H](CC(C)C)NC(=O)[C@H](CCCCN)NC(=O)[C@H](CCCCN)NC(=O)[C@H](C)NC(=O)[C@@H](N)C(C)C)C(N)=O
Response: 8
